# PROTOCOL NOTES: qHTS assay to identify small molecule antagonists of the estrogen receptor alpha (ER-alpha) signaling pathway - cell viability counter screen (AID 743074);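 note: HEK293 cells carrying ER-alpha-UAS-bla reporter stimulated with 17beta-estradiol; nearly all actives have a fitted effect of over 45% in size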
# RUN PARAMETERS: ERalpha-bla HEK293 viability, CellTiter-Glo luminescence, 18 h; series mostly up to 69.4 µM
Inconclusive results are not listed. Activity calls are given as the source filed them. Calls come from the whole dose curve.

SMILES STRING: C[C@]12N[C@H](Cc3ccccc31)c1ccccc12
outcome: inactive

SMILES STRING: CC[N+](C)(CC)CCOC(=O)C(O)(c1ccccc1)c1ccccc1
outcome: inactive

SMILES STRING: C[C@@H]1[C@H](O)[C@@H](C)/C=C/C=C/CC/C=C/C=C/C=C/C=C/[C@H](O[C@H]2O[C@@H](C)[C@H](O)[C@@H](N)[C@H]2O)CC2O[C@](O)(C[C@@H](O)[C@H](O)CC[C@@H](O)C[C@@H](O)C[C@@H](O)CC(=O)O[C@H]1C)C[C@H](O)[C@H]2C(=O)O
outcome: inactive
